# Tested on: H1975 cells
# PROTOCOL_DESCRIPTION: ELISA assay for cell activity of EGFR T790M inhibitor, H1975 cells
# MEASUREMENT_PARAMETERS: ELISA, ratio of cell IC50 values
PROPERTY_LABEL: Selective inhibitory activities against cell [IC50(A431 cell)/IC50(H1975 cell)]

[
  {
    "SMILES_NOTATION": "C=CC(=O)Nc1cc(Nc2nccc(OC3CN(c4cnc5c(cnn5C)c4)C3)n2)c(OC)cc1N(C)CCN(C)C",
    "OBSERVED_RESULT": 11.1
  },
  {
    "SMILES_NOTATION": "C=CC(=O)Nc1cc(Nc2ncc(Cl)c(NC3CC3)n2)c(OC)cc1N1CCC(N(C)C)CC1",
    "OBSERVED_RESULT": 7.7
  },
  {
    "SMILES_NOTATION": "C=CC(=O)Nc1cc(Nc2nccc(OC3CN(S(=O)(=O)c4ccccc4)C3)n2)c(OC)cc1N(C)CCN(C)C",
    "OBSERVED_RESULT": 3.3
  },
  {
    "SMILES_NOTATION": "C=CC(=O)Nc1cc(Nc2ncc(Cl)c(OC3CN(C(C)=O)C3)n2)c(OC)cc1N(C)CCN(C)C",
    "OBSERVED_RESULT": 32.5
  }
]

From here, focus on the item given below.
Recorded result, C=CC(=O)Nc1cc(Nc2nccc(OC3CN(c4cccnc4)C3)n2)c(OC)cc1N(C)CCN(C)C , Selective inhibitory activities against cell [IC50(A431 cell)/IC50(H1975 cell)]: 1.2
